molecular target: T1, Ala mutant having 3-amino acid substitution, SEQ ID NO: 48 (human); assay: ELISA, peptide on plate (10 ug/mL)
T1 sequence (peptide): EENMDDQWMQDEAAAGY
Reported values of absorbance 490 nm/630 nm for individual entries
Write the answer as a number in OD, unit excluded.

A selection of reference data follows.
H7 (antibody, IgG1, V domains shown) VH: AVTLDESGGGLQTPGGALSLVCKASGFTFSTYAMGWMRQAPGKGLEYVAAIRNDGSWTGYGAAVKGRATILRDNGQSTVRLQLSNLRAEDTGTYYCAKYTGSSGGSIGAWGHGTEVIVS VL: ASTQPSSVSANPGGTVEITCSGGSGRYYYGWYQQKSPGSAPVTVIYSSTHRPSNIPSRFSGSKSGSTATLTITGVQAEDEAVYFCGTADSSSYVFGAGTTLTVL	1.87
G9 (antibody, IgG1, V domains shown) VH: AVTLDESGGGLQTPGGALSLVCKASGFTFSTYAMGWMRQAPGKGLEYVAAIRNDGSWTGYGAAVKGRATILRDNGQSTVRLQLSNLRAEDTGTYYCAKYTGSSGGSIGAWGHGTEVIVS VL: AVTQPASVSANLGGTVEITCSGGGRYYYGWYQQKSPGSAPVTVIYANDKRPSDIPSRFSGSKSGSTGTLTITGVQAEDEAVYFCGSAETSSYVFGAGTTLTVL	1.89

Recorded absorbance 490 nm/630 nm of G6 (antibody, IgG1, V domains shown) VH: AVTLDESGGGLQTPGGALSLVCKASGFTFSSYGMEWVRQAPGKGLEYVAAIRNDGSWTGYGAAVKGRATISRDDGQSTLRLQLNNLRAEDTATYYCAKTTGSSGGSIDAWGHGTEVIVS VL: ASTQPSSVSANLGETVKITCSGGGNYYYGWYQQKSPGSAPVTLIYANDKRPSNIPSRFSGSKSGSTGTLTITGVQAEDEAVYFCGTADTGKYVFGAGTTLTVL , please.
1.85

Recorded absorbance 490 nm/630 nm of G8 (antibody, IgG1, V domains shown) VH: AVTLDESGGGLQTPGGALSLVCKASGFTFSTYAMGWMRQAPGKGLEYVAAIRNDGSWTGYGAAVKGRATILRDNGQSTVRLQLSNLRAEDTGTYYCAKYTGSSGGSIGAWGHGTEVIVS VL: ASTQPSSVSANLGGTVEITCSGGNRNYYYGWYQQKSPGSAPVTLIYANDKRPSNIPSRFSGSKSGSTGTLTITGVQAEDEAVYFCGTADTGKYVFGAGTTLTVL , please.
1.88
